Test: Toxicity test by oral administration in a rat (LD50, LD10)
Details: rat, in vivo, po
OBSERVED_PROPERTY: LD50 (mg/kg)
Return type: number; implicit unit mg/kg.

Form: compound = `CC(=O)Oc1ccccc1C(=O)O` ; LD50 = 978
